system tested: human SOS1 (SOS1) with human K-RasG12C (Homo sapiens (Human))
assay explanation: hK-RasG12C interaction assay with hSOS1 (HTRF)
measurement context: GST-hK-RasG12C and His-hSOS1, 60 min incubation at 20° C, mean, read-out: K-RasG12C - SOS interaction assay IC50 - [mol/l] (mean)
Assignment: determine reported IC50 for the given compounds.
Answers are plain numbers, in nM.

Recorded IC50, per entry:
# compound, recorded number
data = [
    ("CC(=O)N[C@@H]1CCN(c2cnc3ncnc(N[C@H](C)c4cccc(C(F)(F)F)c4C)c3c2)C1", 17.6),
    ("CC(=O)N1C[C@@H]2C[C@H]1CN2c1cnc2nc(C)nc(N[C@H](C)c3cccc(C(F)(F)F)c3C)c2c1", 5.15),
    ("CC(=O)N1CC2(C1)CN(c1cc3c(N[C@H](C)c4cccc(C(F)F)c4F)nc(C)nc3nc1C(F)(F)F)C2", 29.5),
    ("Cc1nc(N[C@H](C)c2cccc(C(F)F)c2F)c2cc(N3CCCS3(=O)=O)c(C)nc2n1", 16.2),
]

Please state, for each entry, its recorded IC50.
1. Cc1nc(N[C@H](C)c2cccc(C(F)(F)F)c2C)c2cc(-c3cncnc3)cnc2n1
2. CC(=O)N1C2CC1CN(c1cnc3nc(C)nc(N[C@H](C)c4cccc(C(F)(F)C(C)(C)O)c4F)c3c1)C2
3. CC(=O)N1CCC(c2cnc3nc(C)nc(N[C@H](C)c4cccc(C(F)(F)C(C)(C)O)c4F)c3c2)CC1
4. CC(=O)N1CCC(c2cc3c(N[C@H](C)c4cccc(C(F)(F)C(C)(C)O)c4F)nc(C)nc3nc2C)CC1
5. CC(=O)N1CC2(C1)CN(c1cnc3nc(C)nc(N[C@H](C)c4cccc(C(F)(F)F)c4C)c3c1)C2 [Example 13]
6. CC(=O)N[C@@H]1CCN(c2cnc3nc(C)nc(N[C@H](C)c4cccc(C(F)(F)F)c4C)c3c2)C1
7. CC(=O)N1CC2(CCC(c3cnc4nc(C)nc(N[C@H](C)c5cccc(C(F)(F)F)c5C)c4c3)CC2)C1
8. CC(=O)N1CC2(C1)CN(c1cc3c(N[C@H](C)c4cccc(C(F)(F)F)c4C)nc(C)nc3nc1C)C2

Response given:
[21.1, 3.31, 4, 3.18, 6.35, 17.5, 9.4, 8.66]

Please state, for each entry, its recorded IC50.
1. CC(=O)N1CCC(c2cc3c(N[C@H](C)c4cccc(C(F)(F)F)c4C)nc(C)nc3nc2C(F)(F)F)CC1
2. CC(=O)N1CCN(c2cc3c(N[C@H](C)c4cccc(C(F)(F)F)c4C)nc(C)nc3nc2C)CC1
3. COc1nc2nc(C)nc(N[C@H](C)c3cccc(C(F)(F)F)c3C)c2cc1C1=CCN(C(C)=O)CC1

Response given:
1. 28.9
2. 8.25
3. 949

---

system tested: human SOS1 (SOS1) with human K-RasG12C (Homo sapiens (Human), UniProt Q07889)
Sequence (Q07889 564-1049): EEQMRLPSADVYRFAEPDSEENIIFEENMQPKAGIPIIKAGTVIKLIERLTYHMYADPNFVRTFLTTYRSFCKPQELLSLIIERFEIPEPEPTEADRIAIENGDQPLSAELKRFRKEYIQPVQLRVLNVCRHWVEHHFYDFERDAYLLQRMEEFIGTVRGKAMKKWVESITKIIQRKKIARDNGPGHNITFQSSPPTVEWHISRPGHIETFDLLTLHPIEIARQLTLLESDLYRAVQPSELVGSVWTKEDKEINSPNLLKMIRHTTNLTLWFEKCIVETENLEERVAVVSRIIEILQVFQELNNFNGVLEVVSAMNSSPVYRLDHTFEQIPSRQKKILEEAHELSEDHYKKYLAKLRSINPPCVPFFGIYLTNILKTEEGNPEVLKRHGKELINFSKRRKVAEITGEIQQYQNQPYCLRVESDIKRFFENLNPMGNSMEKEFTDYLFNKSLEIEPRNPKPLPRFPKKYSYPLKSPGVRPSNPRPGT
assay explanation: hK-RasG12C interaction assay with hSOS1 (HTRF)
measurement context: GST-hK-RasG12C and His-hSOS1, 60 min incubation at 20° C, mean, read-out: K-RasG12C - SOS interaction assay IC50 - [mol/l] (mean)
Source text: Biochemical Assay: hK-RasG12C Interaction Assay with hSOS1 This assay quantifies the equilibrium interaction of human SOS1 (SOS1) with human K-Ras^G12C (K-RasG12C). Detection of the interaction is achieved by measuring homogenous time-resolved fluorescence resonance energy transfer (HTRF) from antiGST-Europium (FRET donor) bound to GST-K-RasG12C to anti-6His-XL665 bound to His-tagged hSOS1 (FRET-acceptor). […]
parameter measured: log10(IC50) (log10 of the value in nM)
Hi team, quick reminder: these entries are log10 of IC50 (nM).

Recorded log10(IC50), per entry:
# molecule, recorded number
records = [
    ("CC(=O)N1CCN(S(=O)(=O)c2cnc3nc(C)nc(N[C@H](C)c4cccc(C(F)(F)F)c4C)c3c2)CC1", 0.55),
    ("CC(=O)N1CCN(c2cnc3nc(C)nc(N[C@H](C)c4cccc(C(F)(F)C(C)(C)O)c4F)c3c2)CC1", 0.52),
    ("COc1nc2nc(C)nc(N[C@H](C)c3cccc(C(F)(F)F)c3C)c2cc1N1CCCS1(=O)=O", 3.42),
    ("CC(=O)N1CC=C(c2cc3c(N[C@H](C)c4cccc(C(F)F)c4F)nc(C)nc3nc2C)CC1", 1.15),
]

Please state, for each entry, its recorded log10(IC50).
1. CC(=O)N1CC2(C1)CN(c1cc3c(N[C@H](C)c4cccc(C(F)(F)F)c4C)nc(C)nc3nc1C(F)(F)F)C2
2. CC(=O)N1CC2(C1)CN(c1cc3c(N[C@H](C)c4cccc(C(F)(F)CO)c4F)nc(C)nc3nc1C(F)(F)F)C2
3. CC(=O)N1CC2(C1)CN(c1cnc3nc(C)nc(N[C@H](C)c4cccc(C(F)(F)F)c4C)c3c1)C2 [Example 8]

Response given:
0.76
0.45
1.20
